# TARGET OR TEST SYSTEM: hMC1r (Homo sapiens, UniProt Q01726)
# Sequence (Q01726 whole entry): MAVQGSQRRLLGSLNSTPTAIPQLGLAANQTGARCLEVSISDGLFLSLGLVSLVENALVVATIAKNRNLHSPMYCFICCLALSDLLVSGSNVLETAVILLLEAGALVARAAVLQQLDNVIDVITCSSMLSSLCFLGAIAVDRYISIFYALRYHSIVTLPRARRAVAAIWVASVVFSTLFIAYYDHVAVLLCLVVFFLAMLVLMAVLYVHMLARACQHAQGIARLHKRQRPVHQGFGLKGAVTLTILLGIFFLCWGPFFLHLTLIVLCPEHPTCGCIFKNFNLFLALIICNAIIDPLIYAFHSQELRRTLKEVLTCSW
# ASSAY OVERVIEW: Assay for agonist activity: cAMP accumulation in HBL melanoma cells
# Type: cell-based
# Parameters: endogenous in cells; host or cells: HBL human melanoma cells
# EXPERIMENTAL SETUP: HBL, compared to NDP-α-MSH as 100%, read-out: MC-1 Emax (average; cAMP HBL)
Bridge positions count the residues as written; N and C are the ends. Square brackets hold non-standard residues; d marks the D form. Peptide text beside a SMILES is read from it. dPhe(3,4-F2) = N[C@H](Cc1ccc(F)c(F)c1)C(=O)O; dPhe(3-Cl) = N[C@H](Cc1cccc(Cl)c1)C(=O)O; Nle = CCCC[C@H](N)C(=O)O; Orn = NCCC[C@H](N)C(=O)O; Dab = NCC[C@H](N)C(=O)O
Measured Emax accompanies every entry in the list below.
// units = %; emit number, no label

[
  {
    "COMPOUND": "CCCC[C@H](NC(C)=O)C(=O)N[C@H]1CCC(=O)NCC[C@@H](C(=O)N[C@@H](Cc2c[nH]c3ccccc23)C(N)=O)NC(=O)[C@H](C)NC(=O)[C@@H](Cc2ccccc2)NC(=O)[C@H](Cc2c[nH]cn2)NC1=O [Example 9.48]",
    "Emax / %": 72
  }
]

Which Emax value is on record for CCCC[C@H](NC(C)=O)C(=O)N[C@H]1CCC(=O)NCC[C@@H](C(N)=O)NC(=O)[C@H](C)NC(=O)[C@@H](Cc2ccccc2)NC(=O)[C@H](Cc2c[nH]cn2)NC1=O [Example 9.33, Ac-Nle-cyclo(Glu-His-D-Phe-Ala-Dab)-NH2] ?
73

Another compound: CCCC[C@H](NC(C)=O)C(=O)N[C@H]1CCC(=O)NCC[C@@H](C(N)=O)NC(=O)[C@H](CCCNC(=N)N)NC(=O)[C@@H](Cc2ccc(F)c(F)c2)NC(=O)[C@H](CCCN)NC1=O [Example 9.62] (Ac-[Nle]E[Orn][dPhe(3,4-F2)]R[Dab]-NH2; lactam 2-6)
97

Another compound: CCCC[C@H](NC(C)=O)C(=O)N[C@H]1CCC(=O)NCC[C@@H](C(N)=O)NC(=O)[C@H](CCCNC(=N)N)NC(=O)[C@@H](Cc2cccc(Cl)c2)NC(=O)[C@H](CCCN)NC1=O [Example 9.58] (Ac-[Nle]E[Orn][dPhe(3-Cl)]R[Dab]-NH2; lactam 2-6)
86

Another compound: N=C(N)NCCC[C@@H]1NC(=O)[C@@H](Cc2ccccc2)NC(=O)[C@H](Cc2c[nH]cn2)NC(=O)[C@@H](NC(=O)Cc2ccccc2)CCC(=O)NCC[C@@H](C(=O)N[C@@H](Cc2c[nH]c3ccccc23)C(N)=O)NC1=O [Example 9.23]
82

Another compound: CCCC[C@H](NC(C)=O)C(=O)N[C@H]1CCC(=O)NCC[C@@H](C(N)=O)NC(=O)[C@@H](Cc2ccccc2)NC(=O)[C@H](Cc2c[nH]cn2)NC1=O [Example 9.46, Ac-Nle-cyclo(Glu-His-D-Phe-Dab)-NH2] (Ac-[Nle]EH[dF][Dab]-NH2; lactam 2-5)
51

Another compound: CCCCCCC(=O)N[C@H]1CCC(=O)NCC[C@@H](C(=O)N[C@@H](Cc2c[nH]c3ccccc23)C(N)=O)NC(=O)[C@H](CCCNC(=N)N)NC(=O)[C@@H](Cc2ccccc2)NC(=O)[C@H](Cc2c[nH]cn2)NC1=O [Example 9.18]
87

Another compound: CCCC[C@H](NC(C)=O)C(=O)N[C@H]1CCC(=O)NCC[C@@H](C(=O)N[C@@H](Cc2c[nH]c3ccccc23)C(N)=O)NC(=O)[C@H](CCCNC(=N)N)NC(=O)[C@@H](Cc2ccccc2)NC(=O)[C@H](CCCN)NC1=O [Example 9.42]
109
